Tested on: K-562
protocol-summary: SRB colorimetric assay of cell growth and viability, K-562
Type: cell-based, human
recorded-conditions: 48 hours exposure, SRB
Where a SMILES comes first, the peptide text is derived from it. Bridges are numbered along the chain shown (N, C = ends). [ ]: non-standard residue; d: D form. The star is where a group is joined. d(aIle) = CC[C@H](C)[C@@H](N)C(=O)O; d(aThr) = C[C@@H](O)[C@@H](N)C(=O)O; Hexanoyl(5-Me) = CC(C)CCCC(=O)*; Orn = NCCC[C@H](N)C(=O)O; Dhb = C/C=C(\N)C(=O)O; Dha = C=C(N)C(=O)O
Measured GI50, listed per entry for reference.
observable: GI50 (µM)

>>> recorded_value("C/C=C1\\NC(=O)[C@H](Cc2c[nH]c3ccccc23)NC(=O)[C@@H](C(C)C)NC(=O)[C@@H]([C@@H](C)CC)NC(=O)[C@H](NC(=O)[C@H](NC(=O)[C@H](CCCN)NC(=O)[C@H]2CCCN2C(=O)[C@H](NC(=O)[C@@H](NC(=O)[C@@H](NC(=O)[C@H](NC(=O)CCCC(C)C)C(C)C)[C@@H](C)O)C(C)C)C(C)C)[C@@H](C)CC)[C@@H](C)OC(=O)[C@H](C(C)C)NC1=O [Compound 68, [Trp^3]-KF] ({Hexanoyl(5-Me)}-[dV]TV[dV][dP][Orn][d(aIle)][d(aThr)][d(aIle)][dV]W[Dhb]V; ester 8-C)")
3.7
>>> recorded_value("C=C1NC(=O)[C@H](Cc2ccccc2)NC(=O)[C@@H](C(C)C)NC(=O)[C@@H]([C@@H](C)CC)NC(=O)[C@H](NC(=O)[C@H](NC(=O)[C@H](CCCN)NC(=O)[C@H]2CCCN2C(=O)[C@H](NC(=O)[C@@H](NC(=O)[C@@H](NC(=O)[C@H](NC(=O)CCCC(C)C)C(C)C)[C@@H](C)O)C(C)C)C(C)C)[C@@H](C)CC)[C@@H](C)OC(=O)[C@H](C(C)C)NC1=O [Compound 67, [Dha^2]-KF] ({Hexanoyl(5-Me)}-[dV]TV[dV][dP][Orn][d(aIle)][d(aThr)][d(aIle)][dV]F[Dha]V; ester 8-C)")
2.92

Just for reference, patent US20070117743A1 is where these values come from.
